% activity listing for selected sequences.
# target.or.system: EGFR(T790M, L858R) (h) (Homo sapiens, UniProt P00533, L858R/T790M)
# Construct: purchased Millipore
# procedure.summary: Kinase Profiling Assay
# Format: biochemical
# condition.description: 100 μM
Numbers only here, please. The scale is %.

# count of solved cases: 3
In [3]: df
Out[3]:
                             entry_sequence     readout  result_value
0  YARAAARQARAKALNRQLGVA (Mammalian) [MMI-0200]  % activity           108
1          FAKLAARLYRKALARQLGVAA [MMI-0300]  % activity            85
2  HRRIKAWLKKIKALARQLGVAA (Mammalian) [MMI-0500]  % activity            53

Consider now this further sequence.
In: Value wanted: % activity (EGFR(T790M, L858R) (h) (Homo sapiens, UniProt P00533, L858R/T790M)) of entry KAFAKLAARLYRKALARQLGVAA [MMI-0400]
Out: 78
